Give protein stability index for every item shown.
assay.protocol: protein stability index of a GFP-peptide fusion (yeast GPS) (PSI 1-4); higher = more stable; sorted into four equal gates, so the index is relative within each strain
condition.context: san1∆
// response body must contain only the number

Entry RFEVINNETEQLKAEEK [SMC1] — recorded protein stability index = 3.05

Measured protein stability index of APQLFPYGSFHQQQLQQ [DSN1] : 2.77

Reported protein stability index for ELSRIENEVENINATNT [YCS4] was 3.23

Record summary for LKLNHIIANINSFTKGN [SNU114] : reported protein stability index = 1.83

Value of measured protein stability index for the entry YVSDSDDSSSDNDSLTD [SIR4] : 2.67

Please fill in: protein stability index reported for RLQQGRRLPMTMFTAEQ [SNF2] = 3.13

# sequence AEEEEESDDDMGFGLFD [RPP0] ; its protein stability index = 3.24

protein stability index reported for this sequence AAELQEKPLTPLKYTKL [SNF6] : 2.39

Consider MSDAVTIRTRKVISNPL [RPS24A] . Its measured protein stability index is 2.97

Measured protein stability index of KNTELSYDFLPLSNIKA [RPN12] : 3.08

Reported protein stability index for RIISGDQITKMKDRLVE [RPN9] was 3.34

Input VRVQFQFTGFLLHEMTQ [GRR1] . Output protein stability index: 1.91

Reported protein stability index for MIIFLKNYDATDKPFSS [CSI1] was 2.92

Noted for AVKYGLNHVVSLIENKK [RPL8B] : its protein stability index reads 2.26

# sequence DLKSKADKLADMANEII [RRP6] ; its protein stability index = 3.19

The sequence identified as PSLELSAEYLQMSLEAN [YJR042W/NUP85] registered its protein stability index at 2.54

Value of protein stability index reported for the sequence MLKYRRLFIGDQNNKKM [SNF2] is 2.47

The reported value for RNRGKIHSGVLSSIESD [YMR153W/NUP53] in terms of protein stability index is 3.13

Record summary for TYDMVGGLTKQIKEIKE [RPT6] : reported protein stability index = 1.89

# sequence GKLISNLSSTPMETLLS [YML031W/NDC1] ; its protein stability index = 2.51

protein stability index in this record for IPDMSKNVELGWKPLRY [SNU114] : 2.58

Value of measured protein stability index for the entry LENKENGLLNEISRLKT [SMC2] : 3.15

* * *

assay.protocol: protein stability index of a GFP-peptide fusion (yeast GPS) (PSI 1-4); higher = more stable; sorted into four equal gates, so the index is relative within each strain
condition.context: pdr5∆
reported.property: protein stability index

protein stability index recorded for this sequence, KAEFSKEMTLQKNMNDL [YIL149C/MLP2] , is 3.3

So, KMNNKPERFMVFQLPTR [RPC53] ? Its protein stability index was 2.75

// sample KNYLKNYILNFKQSNSE [CDC53] , its protein stability index was 1.95

protein stability index for FEEDSDLALPPPPPPPP [PRP8] is 3.25

The sequence identified as ELMKLDGTEYVLSSVRE [MED6] registered its protein stability index at 3.27

So, LQQAKLRESEISQKLTN [SMC3] ? Its protein stability index was 3.17

Documented protein stability index of EKAKSAGTQSSKFSKQQ [RPL24A] : 3.23

# protein stability index (sequence: SYSGYDIEDALVLNKSS [RET1] ) is 2.63

The recorded protein stability index for entry NPFTSATSSTNANAGLF [YOR098C/NUP1] equals 2.84

Reported protein stability index ( LSKVAALSGNEGDASPF [RPB2] ) = 2.79

protein stability index reported for this sequence LAIKDSKKRFAAIWTLC [RPO21] : 1.92

The sequence identified as ARDLFLKIYYKEEFSSD [RRI2] registered its protein stability index at 2.44

# sequence KLWFQLSESLTKFFDDA [RPN9] ; its protein stability index = 3.24

According to the records, this sequence ENDLSFALMRYYDRKEE [RRI2] displays protein stability index of 2.88

Lab note: measured protein stability index of KAINQELEDVAVKKLYA [YCS4] was 3.23

Noted for GQRDLDRIAAQTLEEDE [RPS19A] : its protein stability index reads 3.21

Sure, the documented protein stability index for VMMDVDSSGVNDLHHSE [RPN3] is 3.31

Short answer for KSKKSWLNRLNNWLFGW [YMR153W/NUP53] : protein stability index was 2.66

// sample SEKNKRQSKSSGKSNTS [ITC1] , its protein stability index was 3.31

protein stability index for SSLEARYFFYLSKINAI [RPN3] is 2.17

Form: sequence = AKNETNSESDSKSDSDS [ITC1] ; protein stability index = 3.03

// protein stability index value for LLIRKLPFQRLVREIAQ [HHT1] : 1.48

Input GRVKYTKRQKHFAWLPT [POP1] . Output protein stability index: 2.48

Record summary for KTNFQDVILDYQTKKFY [REC8] : reported protein stability index = 1.59

For record DLKEGLQDLSRYSRQFI [GRR1] the listed protein stability index is 2.24

Measured protein stability index of ATDISGELRDYIEDFLL [YJR042W/NUP85] : 3.31

The measured protein stability index associated with GLLDESPNRLRVRTDDS [YML031W/NDC1] reads 1.82

Recorded values, source the supplement of paper PMC9732359.
